Values were extracted from ChEMBL document CHEMBL1146614.

# protocol-details: Ability to block thrombin (0.15 nM)-induced platelet aggregation
# Format: functional
readout-type: IC50 (nM)

Worked cases, IC50 given:
- NCC[C@H](NC(=O)[C@H](Cc1ccc(F)c(F)c1)NC(=O)Nc1ccc2c(CN3CCCC3)cn(Cc3c(Cl)cccc3Cl)c2c1)C(=O)NCc1ccccn1: 1100
- CCNCCNC(=O)[C@H](CCN)NC(=O)[C@H](Cc1ccc(F)c(F)c1)NC(=O)Nc1ccc2c(CN3CCCC3)cn(Cc3c(Cl)cccc3Cl)c2c1: 410
- NCCNC(=O)[C@H](Cc1cccs1)NC(=O)[C@H](Cc1ccc(F)c(F)c1)NC(=O)Nc1ccc2c(CN3CCCC3)cn(Cc3c(Cl)cccc3Cl)c2c1: 270
- NCC[C@H](NC(=O)[C@H](Cc1ccc(F)c(F)c1)NC(=O)Nc1ccc2c(CN3CCCC3)cn(Cc3c(Cl)cccc3Cl)c2c1)C(=O)NCc1ccccc1: 340
- NCCC[C@H](NC(=O)[C@H](Cc1ccc(F)c(F)c1)NC(=O)Nc1ccc2c(CN3CCCC3)cn(Cc3c(Cl)cccc3Cl)c2c1)C(=O)NCCN1CCCC1: 250

(I) NCC[C@H](NC(=O)[C@H](Cc1ccc(F)c(F)c1)NC(=O)Nc1cccc2c(CN3CCCC3)cn(Cc3c(Cl)cccc3Cl)c12)C(=O)NCCN1CCCC1
(II) NCCCNC(=O)[C@H](CCN)NC(=O)[C@H](Cc1ccc(Cl)cc1)NC(=O)Nc1ccc2c(CN3CCCC3)cn(Cc3c(Cl)cccc3Cl)c2c1
Prompt: Just tell me: smaller IC50 value, I or II ? Which one? Tell me its label.
Response: II

(A) NCCNC(=O)[C@H](Cc1ccncc1)NC(=O)[C@H](Cc1ccccc1F)NC(=O)Nc1ccc2c(CN3CCCC3)cn(Cc3c(Cl)cccc3Cl)c2c1
(B) NCC[C@H](NC(=O)[C@H](Cc1ccc(F)c(F)c1)NC(=O)Nc1cccc2c1c(CN1CCCC1)cn2Cc1c(Cl)cccc1Cl)C(=O)NCCN1CCCC1
Prompt: Between the two listed entries A and B , which has its IC50 at the higher number? Which one? Tell me its label.
Response: B

----------
# protocol-details: Ability to block thrombin (0.15 nM)-induced platelet aggregation
# Assay type: functional
readout-type: IC50 (nM)

- NCC[C@H](NC(=O)[C@H](Cc1ccc(F)c(F)c1)NC(=O)Nc1ccc2c(CN3CCCC3)cn(Cc3c(Cl)cccc3Cl)c2c1)C(=O)NCCc1ccccn1: 880

(1) NCC[C@H](NC(=O)[C@H](Cc1ccc(F)c(F)c1)NC(=O)Nc1ccc2c(CN3CCCC3)cn(Cc3c(Cl)cccc3Cl)c2c1)C(=O)NCc1ccco1
(2) NCCCNC(=O)[C@H](Cc1cnc[nH]1)NC(=O)[C@H](Cc1ccc(Cl)cc1)NC(=O)Nc1ccc2c(CN3CCCC3)cn(Cc3c(Cl)cccc3Cl)c2c1
Prompt: Between the two listed entries 1 and 2 , which has its IC50 at the higher number? Which one? Tell me its label.
Response: 1

----------
# study-system: Proteinase-activated receptor 1 (Homo sapiens)
# Sequence (P25116 whole entry): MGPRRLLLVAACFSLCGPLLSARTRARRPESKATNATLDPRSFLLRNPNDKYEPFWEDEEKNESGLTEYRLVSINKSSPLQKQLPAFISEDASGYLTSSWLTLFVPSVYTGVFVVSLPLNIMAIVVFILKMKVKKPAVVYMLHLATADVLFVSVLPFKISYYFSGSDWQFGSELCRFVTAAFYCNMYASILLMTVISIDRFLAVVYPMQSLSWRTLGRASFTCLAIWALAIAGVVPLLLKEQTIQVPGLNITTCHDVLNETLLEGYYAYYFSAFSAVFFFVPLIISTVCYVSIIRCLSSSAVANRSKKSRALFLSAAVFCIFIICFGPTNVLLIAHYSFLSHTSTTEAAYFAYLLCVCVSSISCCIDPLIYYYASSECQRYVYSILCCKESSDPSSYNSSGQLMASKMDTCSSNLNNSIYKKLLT
# protocol-details: Ability to inhibit the binding of [3H]S-(p-F-Phe)-homoarginine-L-homoarginine-KY-NH2 to thrombin receptor on the membranes of CHRF-288-11 cells
readout-type: IC50 (nM)

Worked cases, IC50 given:
* NCC[C@H](NC(=O)[C@H](Cc1ccc(F)c(F)c1)NC(=O)Nc1ccc2c(CN3CCCC3)cn(Cc3c(Cl)cccc3Cl)c2c1)C(=O)NCc1ccccn1 | 330
* NCC[C@H](NC(=O)[C@H](Cc1ccc(F)c(F)c1)NC(=O)Nc1ccc2c(CN3CCCC3)cn(Cc3c(Cl)cccc3Cl)c2c1)C(=O)NCCc1ccccn1 | 500

(I) NCCNC(=O)[C@H](Cc1cccs1)NC(=O)[C@H](Cc1ccc(F)c(F)c1)NC(=O)Nc1ccc2c(CN3CCCC3)cn(Cc3c(Cl)cccc3Cl)c2c1
(II) NCC[C@H](NC(=O)[C@H](Cc1ccc(F)c(F)c1)NC(=O)Nc1ccc2c(CN3CCCC3)cn(Cc3c(Cl)cccc3Cl)c2c1)C(=O)NCc1ccccc1
(III) NCC[C@H](NC(=O)[C@H](Cc1ccc(F)c(F)c1)NC(=O)Nc1cccc2c(CN3CCCC3)cn(Cc3c(Cl)cccc3Cl)c12)C(=O)NCCN1CCCC1
Prompt: // ascending sort on recorded IC50 Write out the labels following the order that was asked for.
Response: I, II, III
